Documented TGI across a set of compounds
Test system: OVCAR-8 ovarian
Assay: NCI tumour cell line growth inhibition, 48 h

{"compound": "N#CC(C(=O)/C(=N/N)C(C#N)c1ccccc1)c1ccccc1 (configuration not stated)", "TGI": "> 100 µM"}
{"compound": "O=C(c1ccco1)c1nc2cc(Cl)ccc2[n+]([O-])c1C(F)(F)F", "TGI": "> 100 µM"}
{"compound": "CC(=O)NC(C)(C)C1CC=C(C)CC1 (configuration not stated)", "TGI": "> 100 µM"}
{"compound": "Oc1cc(O)c2c(-c3c(O)c(-c4ccc(O)c(O)c4)[o+]c4cc(O)cc(O)c34)c(O)c(-c3ccc(O)c(O)c3)[o+]c2c1", "TGI": "> 100 µM"}
{"compound": "COc1cc(C)c(Cl)cc1C1=NN(c2ccc(S(N)(=O)=O)cc2)C(/C=C/c2ccccc2)C1 (configuration not stated)", "TGI": "19.1 µM"}
{"compound": "O=c1cc2ccccc2nn1Cc1cccc(Cl)c1", "TGI": "> 100 µM"}
{"compound": "N#CCCCC[N+]12CN3CN(CN(C3)C1)C2", "TGI": "> 100 µM"}
{"compound": "OC1(c2ccccc2)CC2CCC(C1)N2CCCC1(c2ccc(F)cc2)OCCO1 (configuration not stated)", "TGI": "30.2 µM"}
{"compound": "C=CCN1C(=O)/C(=C/c2ccc(OC)cc2)NC1=S", "TGI": "> 100 µM"}
{"compound": "Cn1c(/C=C(\\C#N)c2ccccc2)nc2c(N3CCOCC3)nc(Cl)nc21", "TGI": "3.39 µM"}
{"compound": "c1ccc2[nH]c(-c3ccc(NN=Nc4ccncc4)cc3)nc2c1", "TGI": "> 100 µM"}
{"compound": "N=C(N)N1CCC(N2CCOCC2)CC1", "TGI": "> 100 µM"}
{"compound": "Nc1ccc2nc(Nc3ccc(F)cc3)cnc2c1", "TGI": "> 100 µM"}
{"compound": "CC(C)(C)OC(=O)c1cnc(Cl)cn1", "TGI": "> 100 µM"}
{"compound": "COc1cc(CNc2ccc3nc4n(c(=O)c3c2)CCCCC4)cc(OC)c1OC", "TGI": "> 100 µM"}
{"compound": "Cc1cc(S(N)(=O)=O)c(S/C(CC(C)C)=N\\Nc2ccc([N+](=O)[O-])cc2)cc1Cl", "TGI": "52.8 µM"}
{"compound": "Cc1ccccc1N=Nc1ccc(NC(=O)c2ccnn2C)c(C)c1", "TGI": "> 100 µM"}
{"compound": "Cc1ccc(-n2c3c(c4c(CN(C)C)c(O)ccc42)CCc2ccccc2C3=O)cc1", "TGI": "41.8 µM"}
{"compound": "Cc1cc2nc(CCC(=O)O)c(=O)[nH]c2cc1C", "TGI": "> 100 µM"}
{"compound": "O=C1NC(=O)C2C(=O)NC(=O)C1C2(c1ccccc1)c1cc[nH]c1 (configuration not stated)", "TGI": "> 100 µM"}
{"compound": "Cc1nc(Nc2ccccc2Cl)sc1C(=O)CC(=O)C(=O)Nc1c(Cl)cccc1Cl", "TGI": "96.7 µM"}
{"compound": "O=C(CSc1nc2ccccc2s1)c1sc2sc3ccccc3[n+]2c1[O-]", "TGI": "> 100 µM"}
